biological target: Env of HIV-1 strain X1254_c3 (HIV-1); assay: cell-based or functional assay
Readings of neutralization IC50 for the listed binders
Answer with a number only, understood to be in µg/mL.

For this binder ( γ46κ11 (antibody, V domains shown) VH: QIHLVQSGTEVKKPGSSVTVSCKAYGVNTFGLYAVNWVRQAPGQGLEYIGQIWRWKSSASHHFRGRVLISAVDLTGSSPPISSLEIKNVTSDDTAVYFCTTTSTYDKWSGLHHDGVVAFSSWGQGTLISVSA VL: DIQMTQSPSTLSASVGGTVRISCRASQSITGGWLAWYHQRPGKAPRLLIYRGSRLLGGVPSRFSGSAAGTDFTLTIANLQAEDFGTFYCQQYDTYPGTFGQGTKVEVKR ), measured neutralization IC50 is 5.68

Per the records, this binder ( 8ANC3630 (antibody, V domains shown) VH: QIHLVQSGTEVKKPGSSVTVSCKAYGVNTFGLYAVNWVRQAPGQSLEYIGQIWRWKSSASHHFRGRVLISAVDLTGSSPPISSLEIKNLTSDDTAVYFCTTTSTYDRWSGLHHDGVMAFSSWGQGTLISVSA VL: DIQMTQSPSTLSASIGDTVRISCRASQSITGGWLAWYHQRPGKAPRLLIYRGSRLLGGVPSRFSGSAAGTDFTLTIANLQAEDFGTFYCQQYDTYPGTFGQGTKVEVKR ) has neutralization IC50 equal to 2.38

Per the record, γ52κ61 (antibody, V domains shown) VH: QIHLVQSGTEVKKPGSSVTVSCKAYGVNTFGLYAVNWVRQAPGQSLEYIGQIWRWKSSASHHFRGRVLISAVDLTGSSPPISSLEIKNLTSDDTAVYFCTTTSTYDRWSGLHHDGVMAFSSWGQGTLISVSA VL: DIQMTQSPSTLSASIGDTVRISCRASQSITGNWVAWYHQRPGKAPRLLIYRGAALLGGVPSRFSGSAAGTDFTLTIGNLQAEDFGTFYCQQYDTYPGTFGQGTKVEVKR has neutralization IC50 of 2.57
